Data provenance is paper PMC9927415.

Molecular target: TTK (Homo sapiens, UniProt P33981)
Construct: purchased DiscoverX (KINOMEscan)
Sequence (P33981 whole entry): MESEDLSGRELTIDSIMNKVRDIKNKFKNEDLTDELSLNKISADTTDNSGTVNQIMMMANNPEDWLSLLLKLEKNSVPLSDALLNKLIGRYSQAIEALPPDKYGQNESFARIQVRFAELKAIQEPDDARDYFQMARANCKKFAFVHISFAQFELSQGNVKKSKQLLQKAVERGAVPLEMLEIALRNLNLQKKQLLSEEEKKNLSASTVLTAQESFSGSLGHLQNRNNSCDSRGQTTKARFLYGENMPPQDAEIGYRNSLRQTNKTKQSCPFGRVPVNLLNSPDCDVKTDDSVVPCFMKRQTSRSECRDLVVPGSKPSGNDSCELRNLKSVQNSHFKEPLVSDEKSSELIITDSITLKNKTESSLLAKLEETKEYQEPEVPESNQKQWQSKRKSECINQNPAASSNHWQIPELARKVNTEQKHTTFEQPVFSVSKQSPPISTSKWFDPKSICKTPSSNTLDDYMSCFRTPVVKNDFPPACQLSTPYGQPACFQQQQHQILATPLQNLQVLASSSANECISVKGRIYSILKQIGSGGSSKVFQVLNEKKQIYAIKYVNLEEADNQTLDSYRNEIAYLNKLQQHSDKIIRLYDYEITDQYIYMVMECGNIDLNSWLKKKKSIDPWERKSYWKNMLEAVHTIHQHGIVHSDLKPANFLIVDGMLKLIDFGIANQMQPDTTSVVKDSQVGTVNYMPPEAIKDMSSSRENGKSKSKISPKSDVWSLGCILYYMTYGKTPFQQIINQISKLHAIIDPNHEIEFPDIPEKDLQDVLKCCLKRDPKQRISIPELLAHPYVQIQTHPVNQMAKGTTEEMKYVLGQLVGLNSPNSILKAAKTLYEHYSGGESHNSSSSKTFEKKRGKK
Test: KINOMEscan competitive binding
Details: KINOMEscan, 10 µM, n=1; read-out: Percent inhibition, TTK
QUANTITY NAME: inhibition at 10 µM (%)
Numbers only, in %.

Examples with answers:
Cc1ccc(O)cc1Nc1ccnc(Nc2cccc(C(N)=O)c2)n1: 98.7
C[C@@H](Oc1cc(-c2cnc3ccccn23)sc1C(N)=O)c1ccccc1Cl: 69.8

For each of the compounds below, note its inhibition at 10 µM.
1. Clc1ccc(Nc2ncc(-c3ccccc3)s2)cc1
2. Cc1ccc(O)cc1N(C)c1ccnc(Nc2cccc(S(N)(=O)=O)c2)n1
3. Nc1ncc2c(-c3ccncc3)c[nH]c2n1

1. 0
2. 91.8
3. 99.5

For each of the compounds below, note its inhibition at 10 µM.
1. Fc1cccc(COc2ccc(Nc3ncnc4c3CN(CCN3CCOCC3)CC4)cc2Cl)c1
2. CN1CCN(c2ccc(Nc3nccc(-c4cnn5ncccc45)n3)cc2C#N)CC1
3. COc1cc(Nc2nccc(-c3sc(N)nc3-c3cccc(NC(=O)c4c(F)cccc4F)c3)n2)cc(OC)c1OC
4. COc1ccc(Nc2nccc(-c3cnn4ncccc34)n2)cc1
5. c1ccc(COc2cccc(-c3ccnc4[nH]ccc34)c2)cc1

1. 0
2. 99.9
3. 99.2
4. 100
5. 0
